Target: Serine/threonine-protein kinase TBK1 (Homo sapiens, UniProt Q9UHD2)
Sequence (Q9UHD2 whole entry): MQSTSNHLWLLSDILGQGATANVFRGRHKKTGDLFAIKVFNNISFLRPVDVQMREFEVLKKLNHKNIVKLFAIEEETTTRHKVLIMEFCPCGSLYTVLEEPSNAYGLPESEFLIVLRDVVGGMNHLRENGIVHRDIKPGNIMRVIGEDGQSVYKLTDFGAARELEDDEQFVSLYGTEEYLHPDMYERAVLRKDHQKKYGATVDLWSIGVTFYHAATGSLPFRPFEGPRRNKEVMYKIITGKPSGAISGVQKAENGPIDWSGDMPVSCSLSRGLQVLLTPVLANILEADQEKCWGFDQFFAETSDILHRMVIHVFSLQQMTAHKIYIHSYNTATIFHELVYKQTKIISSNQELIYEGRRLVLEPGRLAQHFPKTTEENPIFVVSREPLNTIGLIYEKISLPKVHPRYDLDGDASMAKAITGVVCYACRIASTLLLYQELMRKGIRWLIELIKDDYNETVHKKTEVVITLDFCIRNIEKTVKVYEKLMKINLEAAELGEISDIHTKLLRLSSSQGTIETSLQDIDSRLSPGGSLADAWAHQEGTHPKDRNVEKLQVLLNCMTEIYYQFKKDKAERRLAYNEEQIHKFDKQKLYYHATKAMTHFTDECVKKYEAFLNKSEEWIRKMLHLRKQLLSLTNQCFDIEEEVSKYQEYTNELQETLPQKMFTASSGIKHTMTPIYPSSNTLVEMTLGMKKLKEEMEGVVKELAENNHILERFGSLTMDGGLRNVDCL
Assay: Inhibition of TBK1 in human THP1 cells assessed as decrease in c-GAMP stimulated IFNbeta secretion preincubated for 45 mins followed by c-GAMP addition and measured after 20 hrs by electrochemiluminescence method
Format: cell-based
quantity_name: IC50 (µM)

Cc1nn(CC(F)(F)F)cc1Nc1ncc(Br)c(NCc2ccc(S(N)(=O)=O)cc2)n1 :: 0.501
